Every entry's value here was drawn from ChEMBL document CHEMBL4145597.

- procedure-details: Half life in mouse liver microsomes
- Type: ADME, microsome

# molecule, half-life
data = [
    ("Cc1ccc(CN2CC[C@@H](N3CC[C@@H](c4ccc(O)cc4)[C@H](F)C3)C2=O)cc1", "3.5 min"),
]

---

- procedure-details: Clearance in CD-1 mouse at 1 mg/kg, iv administered as 5 mins infusion
- Assay type: ADME, organism-based
- condition: in vivo
measured-endpoint: clearance (mL/min/kg)

# molecule, measured-endpoint, readout-number
measured = [
    ("Cc1ccc(CN2CC[C@@H](N3CC[C@@H](c4ccc(O)cc4)[C@H](F)C3)C2=O)cc1", "clearance", 75),
]

---

- measured-target: Cytochrome P450 2C8 (Homo sapiens)
- Sequence (P10632 whole entry): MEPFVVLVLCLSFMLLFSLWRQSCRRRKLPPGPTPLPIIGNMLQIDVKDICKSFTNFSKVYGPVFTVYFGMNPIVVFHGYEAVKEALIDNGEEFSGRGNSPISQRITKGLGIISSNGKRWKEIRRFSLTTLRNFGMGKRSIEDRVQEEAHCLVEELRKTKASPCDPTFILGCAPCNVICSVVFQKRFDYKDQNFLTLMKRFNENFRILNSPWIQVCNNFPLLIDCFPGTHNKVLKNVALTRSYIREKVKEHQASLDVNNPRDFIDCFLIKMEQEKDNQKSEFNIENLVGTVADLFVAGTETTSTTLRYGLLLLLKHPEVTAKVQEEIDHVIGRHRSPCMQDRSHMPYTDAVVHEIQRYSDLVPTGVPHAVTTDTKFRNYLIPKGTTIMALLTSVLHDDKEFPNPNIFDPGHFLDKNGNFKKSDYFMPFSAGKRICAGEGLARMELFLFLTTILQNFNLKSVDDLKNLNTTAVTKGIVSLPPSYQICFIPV
pIC50: −log10 of the molar value.

# molecule, pIC50
measured = [
    ("Cc1ccc(CN2CC[C@@H](N3CC[C@@H](c4ccc(O)cc4)[C@H](F)C3)C2=O)cc1", "< 4.74"),
]

---

- procedure-details: Volume of distribution at steady state in cynomolgus monkey at 1 mg/kg, iv administered as 5 mins infusion
- Assay type: ADME, organism-based, Macaca fascicularis
- condition: in vivo, read-out: Vdss

# molecule, Vd / L/kg
data = [
    ("Cc1ccc(CN2CC[C@@H](N3CC[C@@H](c4ccc(O)cc4)[C@H](F)C3)C2=O)cc1", 1.7),
]

---

- measured-target: UniProt P10635
- Sequence (P10635 whole entry): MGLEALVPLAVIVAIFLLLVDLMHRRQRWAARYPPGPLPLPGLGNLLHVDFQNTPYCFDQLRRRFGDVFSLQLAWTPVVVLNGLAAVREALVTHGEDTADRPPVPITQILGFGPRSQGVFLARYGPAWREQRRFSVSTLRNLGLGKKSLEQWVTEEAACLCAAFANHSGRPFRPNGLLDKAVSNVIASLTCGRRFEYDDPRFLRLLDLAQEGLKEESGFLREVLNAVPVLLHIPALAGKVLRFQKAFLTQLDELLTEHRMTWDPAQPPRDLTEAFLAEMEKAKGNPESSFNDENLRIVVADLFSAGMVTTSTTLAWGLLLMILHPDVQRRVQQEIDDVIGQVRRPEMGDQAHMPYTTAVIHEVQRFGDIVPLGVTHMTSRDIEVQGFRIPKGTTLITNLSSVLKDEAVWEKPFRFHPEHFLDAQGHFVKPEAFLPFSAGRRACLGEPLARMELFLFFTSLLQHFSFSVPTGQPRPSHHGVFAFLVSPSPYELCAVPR

# molecule, IC50
records = [
    ("Cc1ccc(CN2CC[C@@H](N3CC[C@@H](c4ccc(O)cc4)[C@H](F)C3)C2=O)cc1", "> 18 µM"),
]

---

- procedure-details: AUClast in Beagle dog at 1 mg/kg, iv administered as 5 mins infusion
- Type: ADME, organism-based, Canis lupus familiaris
- Set-up: dose 1 mg/kg, time 0 - last, route intravenous
- condition: in vivo

# molecule, AUC(0-t) at 5 min [µM·h]
data = [
    ("Cc1ccc(CN2CC[C@@H](N3CC[C@@H](c4ccc(O)cc4)[C@H](F)C3)C2=O)cc1", 2.5),
]

---

- procedure-details: Aqueous solubility of the compound at pH 7.4
- Assay type: physicochemical
- condition: aqueous medium

# molecule, solubility
data = [
    ("Cc1ccc(CN2CC[C@@H](N3CC[C@@H](c4ccc(OP(=O)(O)O)cc4)[C@H](F)C3)C2=O)cc1", "19900 µg/mL"),
    ("Cc1ccc(CN2CC[C@@H](N3CC[C@@H](c4ccc(O)cc4)[C@H](F)C3)C2=O)cc1", "2 µg/mL"),
]

---

- procedure-details: Fraction unbound in rat plasma
- Assay type: ADME, cell-free

# molecule, fraction unbound
data = [
    ("Cc1ccc(CN2CC[C@@H](N3CC[C@@H](c4ccc(O)cc4)[C@H](F)C3)C2=O)cc1", 0.09),
    ("O=C1[C@H](N2CCC(c3ccc(O)cc3)CC2)CCN1Cc1ccc(F)cc1", 0.11),
]

---

- procedure-details: Fraction unbound in mouse plasma
- Format: ADME, cell-free

# molecule, fraction unbound
measured = [
    ("Cc1ccc(CN2CC[C@@H](N3CC[C@@H](c4ccc(O)cc4)[C@H](F)C3)C2=O)cc1", 0.12),
    ("O=C1[C@H](N2CCC(c3ccc(O)cc3)CC2)CCN1Cc1ccc(F)cc1", 0.12),
]

---

- procedure-details: Fraction unbound in dog plasma
- Assay type: ADME, cell-free, Canis lupus familiaris

# molecule, fraction unbound
records = [
    ("Cc1ccc(CN2CC[C@@H](N3CC[C@@H](c4ccc(O)cc4)[C@H](F)C3)C2=O)cc1", 0.07),
]

---

- procedure-details: Half life in rat liver microsomes
- Assay type: ADME, microsome
measured-endpoint: half-life (min)

# molecule, measured-endpoint, value-units, readout-number
rows = [
    ("Cc1ccc(CN2CC[C@@H](N3CC[C@@H](c4ccc(O)cc4)[C@H](F)C3)C2=O)cc1", "half-life", "min", 2.7),
]

---

- measured-target: Glutamate receptor ionotropic, NMDA 2B (Homo sapiens, UniProt Q05586+Q13224)
- Sequence (Q13224 whole entry, one chain of several): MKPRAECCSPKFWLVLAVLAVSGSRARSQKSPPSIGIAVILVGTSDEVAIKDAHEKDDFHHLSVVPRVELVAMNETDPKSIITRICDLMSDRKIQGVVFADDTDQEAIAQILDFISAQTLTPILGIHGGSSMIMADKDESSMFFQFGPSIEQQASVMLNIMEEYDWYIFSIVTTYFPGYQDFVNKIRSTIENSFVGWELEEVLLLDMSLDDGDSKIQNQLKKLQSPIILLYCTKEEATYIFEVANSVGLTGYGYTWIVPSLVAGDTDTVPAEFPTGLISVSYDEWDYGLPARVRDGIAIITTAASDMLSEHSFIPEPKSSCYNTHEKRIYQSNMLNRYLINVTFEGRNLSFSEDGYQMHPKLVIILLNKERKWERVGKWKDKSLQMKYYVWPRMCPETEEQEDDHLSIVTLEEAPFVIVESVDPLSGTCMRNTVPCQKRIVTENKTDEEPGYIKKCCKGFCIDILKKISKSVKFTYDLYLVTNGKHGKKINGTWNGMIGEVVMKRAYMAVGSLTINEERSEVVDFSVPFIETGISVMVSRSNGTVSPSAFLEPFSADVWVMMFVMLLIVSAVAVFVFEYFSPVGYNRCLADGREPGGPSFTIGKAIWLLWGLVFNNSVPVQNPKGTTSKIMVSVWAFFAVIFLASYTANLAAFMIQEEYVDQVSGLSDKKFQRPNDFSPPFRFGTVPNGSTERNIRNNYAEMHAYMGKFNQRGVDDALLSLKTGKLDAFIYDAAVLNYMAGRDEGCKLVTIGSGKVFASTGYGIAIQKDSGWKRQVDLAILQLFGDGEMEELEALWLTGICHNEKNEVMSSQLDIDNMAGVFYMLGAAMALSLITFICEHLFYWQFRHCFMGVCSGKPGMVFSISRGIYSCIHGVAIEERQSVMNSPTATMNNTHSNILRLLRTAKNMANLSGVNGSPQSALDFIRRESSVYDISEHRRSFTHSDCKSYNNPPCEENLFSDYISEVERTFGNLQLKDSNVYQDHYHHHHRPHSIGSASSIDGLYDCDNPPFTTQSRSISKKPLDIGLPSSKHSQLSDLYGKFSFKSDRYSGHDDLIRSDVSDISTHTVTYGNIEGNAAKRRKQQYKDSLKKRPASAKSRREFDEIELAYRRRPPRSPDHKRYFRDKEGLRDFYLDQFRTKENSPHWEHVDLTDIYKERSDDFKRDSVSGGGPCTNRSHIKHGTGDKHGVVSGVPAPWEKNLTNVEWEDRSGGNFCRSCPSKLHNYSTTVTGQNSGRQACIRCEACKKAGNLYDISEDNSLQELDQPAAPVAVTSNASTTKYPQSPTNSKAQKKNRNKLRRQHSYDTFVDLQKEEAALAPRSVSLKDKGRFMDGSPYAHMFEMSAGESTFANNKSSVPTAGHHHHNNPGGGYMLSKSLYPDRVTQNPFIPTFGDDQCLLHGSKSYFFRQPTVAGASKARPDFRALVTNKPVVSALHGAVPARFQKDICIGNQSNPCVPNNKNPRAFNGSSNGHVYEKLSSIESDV
- procedure-details: Negative allosteric modulation of human GluN2B receptor expressed in Xenopus laevis oocytes assessed as inhibition of glutamate/glycine-induced channel current after 15 to 20 mins by two electrode voltage clamp based electrophysiology assay

# molecule, value-units, IC50
data = [
    ("O=C1[C@H](N2CCC(c3ccc(O)cc3)CC2)CCN1Cc1ccc(F)cc1", "nM", 4.2),
    ("Cc1ccc(CN2CC[C@@H](N3CC[C@@H](c4ccc(O)cc4)[C@H](F)C3)C2=O)cc1", "nM", 24),
]

---

- procedure-details: Fraction unbound in cynomolgus monkey plasma
- Type: ADME, cell-free, Macaca fascicularis

# molecule, fraction unbound
records = [
    ("Cc1ccc(CN2CC[C@@H](N3CC[C@@H](c4ccc(O)cc4)[C@H](F)C3)C2=O)cc1", 0.11),
]

---

- procedure-details: Half life in Sprague-Dawley rat at 1 mg/kg, iv administered as 5 mins infusion
- Type: ADME, organism-based
- condition: in vivo

# molecule, half-life, min
data = [
    ("Cc1ccc(CN2CC[C@@H](N3CC[C@@H](c4ccc(O)cc4)[C@H](F)C3)C2=O)cc1", 54),
]

---

- procedure-details: Volume of distribution at steady state in Beagle dog at 1 mg/kg, iv administered as 5 mins infusion
- Type: ADME, organism-based, Canis lupus familiaris
- condition: in vivo, read-out: Vdss
measured-endpoint: Vd

# molecule, measured-endpoint, result
data = [
    ("Cc1ccc(CN2CC[C@@H](N3CC[C@@H](c4ccc(O)cc4)[C@H](F)C3)C2=O)cc1", "Vd", "2.1 L/kg"),
]

---

- procedure-details: Half life in human liver microsomes
- Assay type: ADME, microsome

# molecule, half-life, min
rows = [
    ("Cc1ccc(CN2CC[C@@H](N3CC[C@@H](c4ccc(O)cc4)[C@H](F)C3)C2=O)cc1", 25),
]

---

- procedure-details: Oral bioavailability in rat at 5 mg/kg
- Format: ADME, organism-based
- condition: in vivo

# molecule, value-units, bioavailability
rows = [
    ("Cc1ccc(CN2CC[C@@H](N3CC[C@@H](c4ccc(O)cc4)[C@H](F)C3)C2=O)cc1", "%", 2.5),
]

---

- procedure-details: Half life in CD-1 mouse at 1 mg/kg, iv administered as 5 mins infusion
- Type: ADME, organism-based
- condition: in vivo

# molecule, value-units, half-life
rows = [
    ("Cc1ccc(CN2CC[C@@H](N3CC[C@@H](c4ccc(O)cc4)[C@H](F)C3)C2=O)cc1", "h", 3.6),
]

---

- procedure-details: Octanol/water buffer partition co-efficient, log D of the compound at pH 7.4 by shake-flask method
- Format: physicochemical
measured-endpoint: logD

# molecule, readout-number
data = [
    ("Cc1ccc(CN2CC[C@@H](N3CC[C@@H](c4ccc(O)cc4)[C@H](F)C3)C2=O)cc1", 2.9),
]

---

- measured-target: UniProt Q12809
- Sequence (Q12809 whole entry): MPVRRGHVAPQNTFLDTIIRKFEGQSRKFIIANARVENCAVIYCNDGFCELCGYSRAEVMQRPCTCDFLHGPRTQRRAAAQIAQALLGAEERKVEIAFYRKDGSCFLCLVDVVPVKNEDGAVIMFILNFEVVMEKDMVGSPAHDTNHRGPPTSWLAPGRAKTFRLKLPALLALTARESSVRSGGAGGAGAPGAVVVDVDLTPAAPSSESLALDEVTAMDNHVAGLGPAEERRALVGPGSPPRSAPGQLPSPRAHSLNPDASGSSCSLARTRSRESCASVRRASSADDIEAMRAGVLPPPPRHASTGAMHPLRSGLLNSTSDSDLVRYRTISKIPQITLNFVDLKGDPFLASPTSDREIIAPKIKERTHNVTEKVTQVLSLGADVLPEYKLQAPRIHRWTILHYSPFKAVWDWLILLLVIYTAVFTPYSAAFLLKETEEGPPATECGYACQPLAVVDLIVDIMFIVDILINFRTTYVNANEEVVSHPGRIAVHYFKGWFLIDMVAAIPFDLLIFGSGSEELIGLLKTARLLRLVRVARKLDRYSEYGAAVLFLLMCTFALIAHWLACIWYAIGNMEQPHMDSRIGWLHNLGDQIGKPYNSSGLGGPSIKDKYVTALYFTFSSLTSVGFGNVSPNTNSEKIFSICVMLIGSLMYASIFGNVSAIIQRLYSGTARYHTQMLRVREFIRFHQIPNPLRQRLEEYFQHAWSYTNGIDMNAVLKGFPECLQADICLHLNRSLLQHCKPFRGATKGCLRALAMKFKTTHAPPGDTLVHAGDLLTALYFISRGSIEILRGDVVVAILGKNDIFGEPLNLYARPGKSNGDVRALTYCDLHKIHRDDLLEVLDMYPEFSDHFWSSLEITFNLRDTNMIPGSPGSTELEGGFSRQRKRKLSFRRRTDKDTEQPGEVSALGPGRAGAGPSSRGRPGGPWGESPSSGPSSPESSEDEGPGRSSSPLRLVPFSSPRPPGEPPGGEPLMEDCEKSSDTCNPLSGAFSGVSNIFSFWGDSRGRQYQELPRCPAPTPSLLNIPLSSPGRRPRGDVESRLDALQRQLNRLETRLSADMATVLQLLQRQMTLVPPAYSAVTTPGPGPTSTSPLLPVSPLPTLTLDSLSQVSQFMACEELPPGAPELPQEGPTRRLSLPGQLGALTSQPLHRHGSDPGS
- procedure-details: Inhibition of human ERG expressed in HEK293 cells assessed as reduction in peak tail current after 2 to 5 mins by patch clamp based electrophysiology assay
pIC50: −log10 of the molar value.
Quick reference: pIC50 of the listed items.

# compound, censoring-qualifier, pIC50
records = [
    ("Cc1ccc(CN2CC[C@@H](N3CCC(c4ccc(O)cc4)C(F)(F)C3)C2=O)cc1 (stereo partly specified)", "<", 4.52),
    ("O=C1[C@H](N2CC[C@@H](c3ccc(O)cc3)[C@H](F)C2)CCN1Cc1ccc(F)cc1", "<", 5.30),
    ("Cc1ccc(CN2CC[C@@H](N3CC[C@H](c4ccc(O)cc4)[C@@H](F)C3)C2=O)cc1", "<", 4.52),
    ("Cc1ccc(CN2CC[C@@H](N3CC[C@H](c4ccc(O)cc4)[C@H](F)C3)C2=O)cc1", "=", 5.11),
    ("Cc1ccc(CN2CC[C@@H](N3CCC(c4ccc(O)cc4)CC3)C2=O)cc1", "=", 6.40),
    ("O=C1[C@H](N2CCC(c3ccc(O)cc3)CC2)CCN1Cc1ccc(F)cc1", "=", 6.21),
]
